Origin of values: paper PMC12671080

tested on: MRSA (ATCC 43300); experiment: MIC test, modified broth microdilution; assay type: cell-based; settings: Staphylococcus aureus, 24 h, broth microdilution, 37°C, read-out: Minimal inhibitory concentration (MIC) against MRSA
measured.metric: MIC

Completed entries (count: 3):
[
  {
    "molecule": "CC(C)[P+](c1ccccc1)(c1ccccc1)c1ccccc1 [[ITPP]·I, i-propyl-triphenyl-phosphonium iodide]",
    "MIC": "≤ 64 µg/mL"
  },
  {
    "molecule": "CCCCC[P+](c1ccccc1)(c1ccccc1)c1ccccc1 [[PTPP]·I, n-pentyl-triphenyl-phosphonium iodide]",
    "MIC": "16 µg/mL"
  },
  {
    "molecule": "CC[P+](c1ccccc1)(c1ccccc1)c1ccccc1 [[ETPP]·I, ethyl-triphenyl-phosphonium iodide]",
    "MIC": "≤ 64 µg/mL"
  }
]

// below: MIC requested for another molecule
## Input Give the measured MIC of CCCC[P+](c1ccccc1)(c1ccccc1)c1ccccc1 [[BTPP]·I, n-butyl-triphenyl-phosphonium iodide] .
## Output ≤ 32 µg/mL

* * *

assay: Cytotoxicity assay (CCK-8); details: mouse
measured.metric: viability at 24 h

## Input Give the measured viability at 24 h of C[P+](c1ccccc1)(c1ccccc1)c1ccccc1 [[MTPP]·I, methyl-triphenyl-phosphonium iodide] .
## Output ~90%

* * *

Exercise: for every item that follows, state its recorded viability at 24 h.
assay: Cytotoxicity assay (CCK-8); details: mouse, L929 cells, Cell viability of L929 cells, at the concentration of MIC, 24 h, CCK-8

Completed entries (count: 2):
[
  {
    "compound": "CC(C)[P+](c1ccccc1)(c1ccccc1)c1ccccc1 [[ITPP]·I, i-propyl-triphenyl-phosphonium iodide]",
    "observed": "~95%"
  },
  {
    "compound": "CCCCC[P+](c1ccccc1)(c1ccccc1)c1ccccc1 [[PTPP]·I, n-pentyl-triphenyl-phosphonium iodide]",
    "observed": "> 97%"
  }
]

I need viability at 24 h for every entry listed below, if you could help.
1. CC[P+](c1ccccc1)(c1ccccc1)c1ccccc1 [[ETPP]·I, ethyl-triphenyl-phosphonium iodide]
2. CCCC[P+](c1ccccc1)(c1ccccc1)c1ccccc1 [[BTPP]·I, n-butyl-triphenyl-phosphonium iodide]

## Output
~90%
~95%

* * *

tested on: Escherichia coli (E. coli, ATCC 25922); assay: MIC test, modified broth microdilution; format: cell-based; details: ATCC25922, broth microdilution, 37°C, 24 h, read-out: Minimal inhibitory concentration (MIC) against E. coli
measured.metric: MIC

Completed entries (count: 3):
[
  {
    "compound": "CC[P+](c1ccccc1)(c1ccccc1)c1ccccc1 [[ETPP]·I, ethyl-triphenyl-phosphonium iodide]",
    "MIC": "≤ 512 µg/mL"
  },
  {
    "compound": "CC(C)[P+](c1ccccc1)(c1ccccc1)c1ccccc1 [[ITPP]·I, i-propyl-triphenyl-phosphonium iodide]",
    "MIC": "≤ 512 µg/mL"
  },
  {
    "compound": "CCCC[P+](c1ccccc1)(c1ccccc1)c1ccccc1 [[BTPP]·I, n-butyl-triphenyl-phosphonium iodide]",
    "MIC": "≤ 512 µg/mL"
  }
]

// below: MIC requested for another compound
## Input Give the measured MIC of CCCCC[P+](c1ccccc1)(c1ccccc1)c1ccccc1 [[PTPP]·I, n-pentyl-triphenyl-phosphonium iodide] .
## Output ≤ 512 µg/mL
